From: patent US20200317802A1

- assay.target: T1, recombinant human ADAMTS5 (R&D Systems cat #2198-AD) (human, UniProt Q9UNA0 262-622, limits assumed)
- T1 construct: bought protein
- T1 sequence: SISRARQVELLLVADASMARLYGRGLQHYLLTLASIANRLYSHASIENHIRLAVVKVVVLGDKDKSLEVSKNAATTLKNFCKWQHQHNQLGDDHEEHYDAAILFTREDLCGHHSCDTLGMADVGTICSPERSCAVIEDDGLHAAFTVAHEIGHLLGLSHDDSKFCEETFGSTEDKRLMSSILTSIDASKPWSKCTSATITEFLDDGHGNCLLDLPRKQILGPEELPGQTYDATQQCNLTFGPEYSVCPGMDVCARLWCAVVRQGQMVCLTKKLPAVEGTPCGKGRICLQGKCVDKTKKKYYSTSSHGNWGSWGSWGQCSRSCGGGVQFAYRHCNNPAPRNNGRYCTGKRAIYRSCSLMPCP
- assay.name: SPR off-rate, Biacore T100, ADAMTS5 immobilised, experiment 3
Reported koff values for a set of binders
# value in s⁻¹; strip the unit string

>>> reported("Nanobody 11B06 (VHH, tagged as tested (anti-Flag detection, IMAC)) VHH: EVQLVESGGGLVQAGGSLRLSCAASGLTFRRNAMGWFRQAPGKERELLAGINWSGGTTYYVDSVKGRFTISRDNAKNTVDLQMISPKPEDTAVYYCAADGDIGTLVNDENPRYWGQGTLVTVSS")
0.00038

So for Nanobody 3D01 (VHH, tagged as tested (anti-Flag detection, IMAC); also called 03D01) VHH: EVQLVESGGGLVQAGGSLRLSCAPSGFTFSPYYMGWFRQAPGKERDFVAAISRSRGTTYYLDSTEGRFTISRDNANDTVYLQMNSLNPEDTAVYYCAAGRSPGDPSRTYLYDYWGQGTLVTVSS , the logged koff turned out to be 0.00046

So for Nanobody 9D03 (VHH, tagged as tested (anti-Flag detection, IMAC); also called 09D03; 9D3) VHH: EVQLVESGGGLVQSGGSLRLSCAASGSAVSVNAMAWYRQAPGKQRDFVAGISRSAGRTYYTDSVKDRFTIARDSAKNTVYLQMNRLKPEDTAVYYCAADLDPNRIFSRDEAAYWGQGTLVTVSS , the logged koff turned out to be 0.0014

So for Nanobody 2F03 (VHH, tagged as tested (anti-Flag detection, IMAC); also called 02F03; 2F3) VHH: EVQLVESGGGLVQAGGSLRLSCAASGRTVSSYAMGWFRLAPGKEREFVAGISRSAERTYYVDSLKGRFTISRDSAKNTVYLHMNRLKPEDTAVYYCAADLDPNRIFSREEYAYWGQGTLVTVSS , the logged koff turned out to be 9.7e-05
